Assign inhibition at 10 µM to each entry below.
molecular target: UniProt:Q12809; test: Displacement of [35S]-labeled MK499 from hERG at 10 uM; details: probe [35S]-MK499
Sequence (Q12809 whole entry): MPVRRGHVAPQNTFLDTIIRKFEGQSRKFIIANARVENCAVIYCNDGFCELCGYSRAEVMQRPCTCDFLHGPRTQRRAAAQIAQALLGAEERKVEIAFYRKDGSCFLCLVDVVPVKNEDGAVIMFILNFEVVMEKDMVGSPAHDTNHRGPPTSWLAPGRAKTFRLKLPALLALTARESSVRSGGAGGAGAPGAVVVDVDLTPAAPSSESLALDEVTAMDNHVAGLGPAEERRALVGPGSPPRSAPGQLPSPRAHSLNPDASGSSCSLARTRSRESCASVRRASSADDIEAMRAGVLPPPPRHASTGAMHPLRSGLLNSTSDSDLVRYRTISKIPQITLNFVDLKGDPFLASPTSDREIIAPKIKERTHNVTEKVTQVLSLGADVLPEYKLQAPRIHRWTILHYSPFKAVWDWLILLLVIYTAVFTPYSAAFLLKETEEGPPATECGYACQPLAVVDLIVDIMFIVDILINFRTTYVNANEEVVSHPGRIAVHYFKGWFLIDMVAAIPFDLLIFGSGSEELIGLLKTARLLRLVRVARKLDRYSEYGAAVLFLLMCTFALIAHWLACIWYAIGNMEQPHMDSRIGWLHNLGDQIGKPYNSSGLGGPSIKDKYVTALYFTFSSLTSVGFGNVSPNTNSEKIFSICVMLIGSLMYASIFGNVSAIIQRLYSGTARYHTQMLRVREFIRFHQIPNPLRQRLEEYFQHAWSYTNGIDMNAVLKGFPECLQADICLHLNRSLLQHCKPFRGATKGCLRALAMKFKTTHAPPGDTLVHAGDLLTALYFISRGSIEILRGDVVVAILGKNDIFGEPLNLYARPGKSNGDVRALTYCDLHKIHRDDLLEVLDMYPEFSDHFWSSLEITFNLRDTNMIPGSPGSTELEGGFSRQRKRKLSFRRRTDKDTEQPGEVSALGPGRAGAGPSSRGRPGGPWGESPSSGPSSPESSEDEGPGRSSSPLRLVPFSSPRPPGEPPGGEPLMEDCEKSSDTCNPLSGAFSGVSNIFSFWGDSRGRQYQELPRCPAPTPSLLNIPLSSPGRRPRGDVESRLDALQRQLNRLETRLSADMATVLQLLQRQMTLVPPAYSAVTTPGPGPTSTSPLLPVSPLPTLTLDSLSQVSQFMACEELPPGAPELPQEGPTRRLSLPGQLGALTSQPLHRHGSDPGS
One number for each entry, in %.

Sample answers from the record:
>>> numeric_value("O=S(=O)(NC[C@@H]1CCC[C@H]1C(O)CCc1ccccc1)c1cc(Cl)cc(Cl)c1 (relative stereo)")
90
>>> numeric_value("OC(CCc1ccccc1)[C@@H]1CCC[C@H]1OCCc1ccc(OC(F)(F)F)cc1 (relative stereo)")
70
>>> numeric_value("O=C(NC[C@@H]1CCC[C@H]1C(O)CCc1ccccc1)c1ccc(OC(F)(F)F)cc1 (relative stereo)")
84

List the reported inhibition at 10 µM of each compound below.
1. O=C(NCc1cc(Cl)cc(Cl)c1)[C@@H]1CCC[C@H]1C(O)CCc1cccc(OC(F)(F)F)c1 (relative stereo)
2. O=C(NCc1ccccc1)[C@@H]1CCC[C@H]1C(O)CCc1ccc(OC(F)(F)F)cc1 (stereo in doubt; 13B)
3. O=S(=O)(NC[C@@H]1CCC[C@H]1C(O)CCc1ccccc1)c1ccc(OC(F)(F)F)cc1 (relative stereo)
4. O=C(NCc1ccccc1C(F)(F)F)[C@@H]1CCC[C@H]1C(O)CCc1cccc(OC(F)(F)F)c1 (relative stereo)

Ans.
87
60
90
78
